Every entry's value here was drawn from PubChem BioAssay (NCI).

Test system: NCI-H226 lung
test summary: NCI-60 one-dose screen, 48 h (100 = growth as untreated, 0 = no growth, -100 = all killed)
measurement parameters: 10 µM unless noted
The panel holds about 83,000 compounds, 20% with a hit somewhere; the sample as a whole holds those more often.
Would you mind sorting the entries by growth according to these classes? group A (below 70%), group B (70% to below 90%), group C (90% or more)

>>> label("N=c1ccn2c(n1)OC1C(O)C(CO)OC12 (centres undefined)")
"group A"
>>> label("CCOC(=O)c1c(C)nc2c(c1N)/C(=C/c1cc(OC)c(OC)c(OC)c1)C(=O)N2c1ccc(OC)cc1")
"group B"
>>> label("COc1cc(/C=C/C(=O)c2cccc(-n3cc(-c4ccc(Cl)cc4)[nH]c3=O)c2)cc(OC)c1OC")
"group B"
>>> label("COc1ccc(-c2cc(-c3ccc(Nc4nc(Nc5ccccc5)nc(Nc5ccc(Cl)cc5)n4)cc3)nc(N)n2)cc1")
"group B"
>>> label("N#Cc1cnn2c(-c3ccc(Cl)cc3)nc(NCCc3ccccc3)nc12")
"group C"
>>> label("C=C(C)[C@@H]1CC[C@]2(CO)CC[C@]3(C)[C@H](CC[C@@H]4[C@@]5(C)C=C(C#N)C(=O)C(C)(C)[C@@H]5CC[C@]43C)[C@@H]12")
"group A"
>>> label("COc1ccc(/C=N/NC(=O)Cn2c(-c3ccc(S(C)(=O)=O)cc3)nc3cc(Cl)ccc32)cc1")
"group A"
>>> label("CCOC(=O)Cc1csc2nc(-c3ccccc3)nn12")
"group C"
>>> label("O=c1[nH]c(NCc2nnnn2-c2ccc(Br)cc2)nc2sc3c(c12)CCCC3")
"group C"
>>> label("Cc1ccc(/C=C(\\C#N)n2nnc3cc(Cl)c(Cl)cc32)cc1")
"group A"
>>> label("CCn1c(Sc2nnc(NC(=O)CSC(=S)N3CCCCC3)s2)nc2c1c(=O)n(C)c(=O)n2C")
"group B"
>>> label("CC(C)CCC[C@@H](C)[C@H]1CCC2C3=CCn4c(=O)ccc(=O)n4C3CC[C@@]21C (some centres undefined)")
"group A"
>>> label("CC(=[N-])N1CCC[C@@H](Nc2c3ccccc3nc3ccccc23)C1.[Cl][Pt].[NH-]CCC[NH-]")
"group A"
>>> label("COc1ccc2c(c1)/C(=C\\c1sc(=S)[nH]c1O)C(C(=O)O)=N2")
"group C"
>>> label("CC(=O)NCC(=O)Nc1ccc(-c2nnc3ccccn23)nc1.CC(=O)NCC(=O)Nc1ccc(-c2nnc3ccccn23)nc1.[Pt+2]")
"group C"
>>> label("COc1ccc(NC(=O)C(=O)c2c[nH]c3ccc(F)cc23)cc1")
"group C"
>>> label("CCCCCCCCCCCCCCCCCC1=NCCN1C(=O)OCCO")
"group B"
